Where do the numbers come from? From PubChem BioAssay (NCI).

Please provide measured GI50 for the entries that follow.
Test system: SNB-75 CNS
Assay: NCI tumour cell line growth inhibition, 48 h

Past entries and their recorded results:
• O=C(CCl)Nc1cc(O)c2c(c1)C(=O)c1cccc(O)c1C2=O = 1.21 µM
• Cc1sc2ncn(Cc3ccc(Cl)c(Cl)c3)c(=O)c2c1C = 29.3 µM
• c1ccc2nc(OCCN3CC3)ccc2c1 = 16.9 µM
• CC[C@H](NC(=O)[C@H](CS(=O)(=O)CC1CC1)N[C@@H](c1ccc(F)cc1)C(F)(F)F)C(=O)C(=O)NC1CC1 = > 100 µM

Lab note: each compound below needs its GI50 filled in.
1. COC(=O)[C@]12CC[C@@H](C)[C@H](C)[C@@H]1C1=CC[C@@H]3[C@@]4(C)CC(=O)[C@H](OC(=O)c5ccco5)[C@@]5(C)COC(=C45)C[C@@]3(C)[C@]1(C)CC2
2. COc1ccc(/C=N/N=C(\[O-])c2ccncc2)cc1F.COc1ccc(/C=N\N=C(/[O-])c2ccncc2)cc1F.[Cu+2]
3. CCc1nc(-n2c(-c3ccccc3)nc3ccccc3c2=O)nc(N)c1-c1ccc(Cl)cc1
4. COc1cc(C2c3cc4c(cc3[C@@H](Nc3ccc(N)cc3)C3COC(=O)[C@H]23)OCO4)cc(OC)c1O (stereo partly drawn)
5. CC(=O)N1CCN(CCOc2ccc(C3CCN(C4=Nn5c(nnc5C(F)(F)F)CC4)CC3)cc2)CC1

# output
["6.3 µM", "14.6 µM", "48.2 µM", "0.347 µM", "3.12 µM"]

For every record below, what is its GI50?
1. Cc1c(C(=O)O[C@H]2[C@@H]3[C@H](C)CC[C@H]3[C@]3(C)O[C@@]2(C2CCCCC2)C[C@H]3OC(=O)CO)ccc2ccccc12
2. C1C[OH+]CC[OH+]CC[OH+]CC[OH+]CC[OH+]CC[OH+]1.[Cl-].[Nb+5]
3. COc1ccc2[nH]c(O)c(/C=c3/cc4c(c(-c5ccc(F)cc5)n3)=Nc3ccccc3-4)c2c1
4. C=CCCC(=O)N1C=CC(=O)[C@H](O)[C@@H]1/C=C/c1ccccc1

# output
1. 2.98 µM
2. 39.6 µM
3. 13 µM
4. 27.4 µM
